# targetOrTestSystem: T1, recombinant human HER2 extracellular domain protein (human, UniProt P04626 23-652)
# T1 construct: range 23-652; Range is printed for the immunogen/panning protein; also called ErbB2; recombinant HER2 protein
# protocolSummary: BLI, Protein A capture
reportedEndpoint: Kd (nM)
Use nM as the unit, but write only the number.

The cases that follow already have their Kd on record.
binder: Hu2117HK-Mu24 (Fc fusion, scFv-hIgG1 Fc; not shown: human IgG1 Fc) scFv: EVQLVESGGGLVQPGGSLRLSCAASGFTYSSYGMSWVRQAPGKGLEWVASISGGGSYTKYPDSVKGRFTISRDNSKNTLYLQMNSLRAEDTAVYYCARDYAGFFDVWGQGTLVTVSSGGGGSGGGGSGGGGSDIQMTQSPSSLSASVGDRVTITCRSSQSLVHSNINTYLHWYQQKPGKAPKLLIYKVSNRFSGVPSRFSGSGSGTDFTLTISSLQPEDFATYFCSQSTHVPYTFGQGTKVEIK
reportedEndpoint: Kd
reported: 6.65
--
binder: Hu2117HK-Mu19 (Fc fusion, name in Kabat numbering, scFv-hIgG1 Fc; not shown: human IgG1 Fc) scFv: EVQLVESGGGLVQPGGSLRLSCAASGFTYSSYGMSWVRQAPGKGLEWVASISGGGSYTKYPDSVKGRFTISRDNSKNTLYLQMNSLRAEDTAVYYCARDYAGFFDVWGQGTLVTVSSGGGGSGGGGSGGGGSDIQMTQSPSSLSASVGDRVTITCRSSQSLVHSQGNTYLHWYQQKPGKAPKLLIYKVSNRFSGVPSRFSGSGSGTDFTLTISSLQPEDFATYFCSQSTHVPYTFGQGTKVEIK
reportedEndpoint: Kd
reported: 13.9

# evaluate next
Asked: Item Hu2117HK-Mu47 (Fc fusion, name in Kabat numbering, scFv-hIgG1 Fc; not shown: human IgG1 Fc) scFv: EVQLVESGGGLVQPGGSLRLSCAASGFTYSSYGMSWVRQAPGKGLEWVASISGGGSYTKYPDSVKGRFTISRDNSKNTLYLQMNSLRAEDTAVYYCARDYQGFFDVWGQGTLVTVSSGGGGSGGGGSGGGGSDIQMTQSPSSLSASVGDRVTITCRSSQSLVHSNGNTYLHWYQQKPGKAPKLLIYKVSNRFSGVPSRFSGSGSGTDFTLTISSLQPEDFATYFCSQSTHVPYTFGQGTKVEIK has what recorded Kd?
Given back: 15.3
